- tgt: T1, EsCas13d, nuclease-dead (Eubacterium siraeum, UniProt B0MS50, R295A;H300A;R849A;H854A)
- T1 sequence: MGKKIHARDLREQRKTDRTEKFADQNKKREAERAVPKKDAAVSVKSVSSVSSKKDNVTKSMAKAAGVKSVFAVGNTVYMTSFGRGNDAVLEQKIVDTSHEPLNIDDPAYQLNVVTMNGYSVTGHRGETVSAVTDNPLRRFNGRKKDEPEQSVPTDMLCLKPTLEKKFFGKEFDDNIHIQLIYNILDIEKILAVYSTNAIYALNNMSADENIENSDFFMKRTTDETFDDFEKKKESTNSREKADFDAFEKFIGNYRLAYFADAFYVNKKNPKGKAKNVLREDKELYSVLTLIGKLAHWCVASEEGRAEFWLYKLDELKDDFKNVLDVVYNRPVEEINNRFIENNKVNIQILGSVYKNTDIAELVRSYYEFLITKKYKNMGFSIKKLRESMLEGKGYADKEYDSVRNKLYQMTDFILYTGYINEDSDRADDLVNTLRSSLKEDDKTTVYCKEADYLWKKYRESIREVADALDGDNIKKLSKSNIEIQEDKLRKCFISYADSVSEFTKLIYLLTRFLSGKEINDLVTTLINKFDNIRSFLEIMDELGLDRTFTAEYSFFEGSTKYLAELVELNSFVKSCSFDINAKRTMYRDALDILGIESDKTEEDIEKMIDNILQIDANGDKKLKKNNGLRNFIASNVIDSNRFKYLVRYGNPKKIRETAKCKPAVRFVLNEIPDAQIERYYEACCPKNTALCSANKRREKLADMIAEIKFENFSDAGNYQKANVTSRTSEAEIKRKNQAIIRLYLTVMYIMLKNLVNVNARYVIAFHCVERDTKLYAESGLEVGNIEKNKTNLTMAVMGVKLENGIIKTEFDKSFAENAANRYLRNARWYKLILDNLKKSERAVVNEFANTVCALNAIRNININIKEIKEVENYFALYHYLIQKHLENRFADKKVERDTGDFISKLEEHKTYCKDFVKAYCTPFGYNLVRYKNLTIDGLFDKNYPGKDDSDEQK
- test method notes: crRNA (strand 1, pre-loaded); Mg2+; 40 mM Tris-HCl pH 7.5, 150 mM NaCl, 6 mM MgCl2, 1 mM DTT, 0.1% Tween-20, 0.2 mg/ml BSA; 25 C; 10 min per concentration, then washed
- applied conditions: tags: His6-TwinStrep-SUMO cleaved; N-terminal SNAP kept (SNAP-Surface 488); label: 3' end held by stalled T7 RNA polymerase
assay endpoint: pKd
Worth noting: pKd values are minus log10 of concentrations stated in mol/L.

# get_value(readout='pKd', item= target 1 U8C,C22A (mixed) RNA 1: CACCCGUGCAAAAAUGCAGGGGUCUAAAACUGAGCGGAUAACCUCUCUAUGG RNA 2: GGGAAUGGAUCCACAUCUACGAAUUCGUAACAUAGAGAGGUUACCCGCUCACCGAGAUCGGAAGAGCACACGU )
7.66

And the next one, target 2 MT 5'PFS GGU 3'PFS UAA (mixed) RNA 1: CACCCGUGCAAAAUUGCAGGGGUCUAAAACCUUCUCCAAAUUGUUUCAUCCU RNA 2: GGGAAUGGAUCCACAUCUACGAAUUCGGUAGGAUGAAACAAUUUGGAGAAGUAAAGAUCGGAAGAGCACACGU ?
8.01
